# TARGET: Progesterone Receptor (Homo sapiens, UniProt P06401)
# Construct: expressed in transfected cells; host or cells: CV-1 cells transduced with PRb-BacMam and MMTV-BacMam
# Sequence (P06401 1-933): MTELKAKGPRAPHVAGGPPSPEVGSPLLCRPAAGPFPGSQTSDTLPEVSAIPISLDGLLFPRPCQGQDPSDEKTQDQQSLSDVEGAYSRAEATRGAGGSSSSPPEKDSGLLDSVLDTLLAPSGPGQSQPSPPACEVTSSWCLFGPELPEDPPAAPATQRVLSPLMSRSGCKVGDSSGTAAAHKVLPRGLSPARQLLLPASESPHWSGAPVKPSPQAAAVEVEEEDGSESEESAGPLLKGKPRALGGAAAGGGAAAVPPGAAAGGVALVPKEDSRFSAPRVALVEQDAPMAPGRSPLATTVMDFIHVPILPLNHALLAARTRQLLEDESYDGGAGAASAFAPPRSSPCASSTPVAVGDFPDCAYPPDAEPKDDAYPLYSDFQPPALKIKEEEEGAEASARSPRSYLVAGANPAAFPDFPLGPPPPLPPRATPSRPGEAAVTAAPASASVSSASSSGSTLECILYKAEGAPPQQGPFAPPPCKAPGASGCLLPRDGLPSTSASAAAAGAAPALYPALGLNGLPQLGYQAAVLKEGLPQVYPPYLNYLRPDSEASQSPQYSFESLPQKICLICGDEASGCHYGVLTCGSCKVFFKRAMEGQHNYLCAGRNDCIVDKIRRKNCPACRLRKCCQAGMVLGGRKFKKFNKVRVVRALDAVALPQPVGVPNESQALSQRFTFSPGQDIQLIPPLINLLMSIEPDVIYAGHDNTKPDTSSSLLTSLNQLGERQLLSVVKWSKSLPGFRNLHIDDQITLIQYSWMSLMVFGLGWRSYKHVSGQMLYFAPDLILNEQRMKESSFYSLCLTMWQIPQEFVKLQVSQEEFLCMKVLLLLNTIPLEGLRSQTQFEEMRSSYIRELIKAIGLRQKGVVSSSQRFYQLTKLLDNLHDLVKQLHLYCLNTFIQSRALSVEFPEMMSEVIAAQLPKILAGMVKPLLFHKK
# PROTOCOL DESCRIPTION: Assay for Progesterone Receptor Agonist Activity (CV-1 cells, PRb-BacMam, MMTV-BacMam)
# Type: cell-based
# CONDITION PARAMETERS: at least once in this assay, read-out: progesterone receptor agonist pEC50 (converted)
# Experimental: A T225 flask of CV-1 cells at a density of 80% confluency was washed with PBS, detached from the flask using 0.25% trypsin and counted using a Sysmex KX-21N. Cells were diluted in DMEM containing 10% Hyclone, 2 mM […] and 1% Pen/Strep at 140 cells/μl and transduced with 10% PRb-BacMam and 10% MMTV-BacMam. […] Plates were incubated in the dark for 10 min before reading them on a Viewlux reader. […]
REPORTED PROPERTY: EC50

These recorded examples may help you get a feel for the data.
Problem: Which EC50 is listed for CN(CC(O)(CNC(=O)c1cnn(-c2ccc(F)cc2)c1N)C(F)(F)F)C(=O)c1ccccc1Cl (racemic) [Example 7 (racemic)] ?
Solution: > 1000 nM

Problem: Using the record for CCN(CC(O)(CNC(=O)c1cnn(-c2ccc(F)cc2)c1N)C(F)(F)F)C(=O)c1cccc2cccnc12 (single isomer, unassigned) [Example 8 Enantiomer 1] , report its EC50.
Solution: > 1000 nM

Alright, here's another molecule for you.
Problem: Item under review: CCN(CC(O)(CNC(=O)c1cnn(-c2ccccc2)c1N)C(F)(F)F)C(=O)c1ccccc1F (racemic) [Example 45 (racemic)] . Reported EC50?
Solution: > 1000 nM
